# reported IC50; entries follow
- Target Or Test System: CDK6/Cyclin D1 (Homo sapiens, UniProt Q00534)
- Sequence (Q00534 whole entry): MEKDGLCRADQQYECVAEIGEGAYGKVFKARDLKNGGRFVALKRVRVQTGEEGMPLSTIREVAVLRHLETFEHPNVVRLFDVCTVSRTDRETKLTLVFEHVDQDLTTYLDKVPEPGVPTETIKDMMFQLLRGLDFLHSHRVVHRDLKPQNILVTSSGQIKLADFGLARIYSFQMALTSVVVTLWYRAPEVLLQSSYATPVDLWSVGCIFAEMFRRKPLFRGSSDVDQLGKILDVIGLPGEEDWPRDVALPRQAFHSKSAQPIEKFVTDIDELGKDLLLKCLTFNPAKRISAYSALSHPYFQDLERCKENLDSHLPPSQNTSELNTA
- Sequence (P24385 whole entry partner): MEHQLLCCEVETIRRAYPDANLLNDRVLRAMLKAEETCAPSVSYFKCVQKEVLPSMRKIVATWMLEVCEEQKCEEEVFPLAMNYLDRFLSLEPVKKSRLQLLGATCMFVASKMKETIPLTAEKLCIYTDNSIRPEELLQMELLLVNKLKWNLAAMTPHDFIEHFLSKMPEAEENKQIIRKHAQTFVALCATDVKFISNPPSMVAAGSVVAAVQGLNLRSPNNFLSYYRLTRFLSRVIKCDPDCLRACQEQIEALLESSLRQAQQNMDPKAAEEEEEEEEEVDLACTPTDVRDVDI
- Protocol Text: NanoBRET live-cell target engagement, NanoLuc-CDK6/Cyclin D1 in HEK-293
- Type: binding
- Assay Context: CDK6/D1; experiment 1; read-out: IC50
Report as a plain number; the unit nM is understood.

Compound	Endpoint Unit	Value
CS(=O)(=O)N1CCC(NC(=O)c2[nH]ncc2NC(=O)c2c(Cl)cccc2Cl)CC1	nM	18

-- ask Quick one: give measured IC50 for CNc1nc(C)c(-c2nc(Nc3cccc(S(N)(=O)=O)c3)ncc2F)s1
-- reply 22

-- ask Quick one: give measured IC50 for CC(C)c1cnn2c(NCc3ccccc3-n3cccn3)nc(OC3CCCNC3)nc12 (centres unmarked)
-- reply 9

-- ask Quick one: give measured IC50 for CC(C)c1c2cc(-c3ccnc(N[C@H]4CC[C@H](NC5CCOCC5)CC4)n3)ccc2nn1C
-- reply 124

-- ask Quick one: give measured IC50 for CN1CCC(c2c(O)cc(O)c3c(=O)cc(-c4ccccc4Cl)oc23)C1CO (centres unmarked)
-- reply 550

-- ask Quick one: give measured IC50 for CNC(=O)c1nn(C)c2c1C(C)(C)Cc1cnc(Nc3ccc(N4CCN(C)CC4)cc3)nc1-2
-- reply 110

-- ask Quick one: give measured IC50 for N#CCNC(=O)c1ccc(-c2ccnc(Nc3ccc(N4CCOCC4)cc3)n2)cc1
-- reply 318

-- ask Quick one: give measured IC50 for CN1CCN(c2ccc(Nc3ncc4cc(C#N)c(=O)n(C5CCCC5)c4n3)cc2)CC1
-- reply 4.8

Data origin, for the record: paper PMC7265341
